EXPERIMENTAL SYSTEM: CDK2 (Homo sapiens, UniProt P24941)
Construct: endogenous in cells; host or cells: MKN1 cells
METHOD NOTES: CDK2 degradation in MKN1 cells (AlphaLISA)
Assay type: cell-based
CONDITION SET: 14 h incubation, read-out: CDK2 degradation 14 h: Mean external-Abs DC50
QUANTITY MEASURED: DC50

// sample Cn1nc(N2CCC(=O)NC2=O)c2ccc(C3CCN(Cc4cccc(S(=O)(=O)N5CCC(Nc6ncc7ccc(=O)n(C8CCCC8)c7n6)CC5)c4)CC3)cc21 [I-968] , its DC50 was < 100 nM

response.value for COc1ccc2c(c1N1CCC(N(C)CC3CCN(S(=O)(=O)c4ccc(Nc5ncc6cc(Cl)c(=O)n(C(C)C)c6n5)c(C)c4)CC3)CC1)n(C)c(=O)n2C1CCC(=O)NC1=O (stereo not drawn) [I-379] (field: DC50) = < 100 nM

Sample Cc1cc(S(=O)(=O)C2CCC3(CC2)CN(CC2CCN(c4cccc5c4n(C)c(=O)n5C4CCC(=O)NC4=O)CC2)C3)ccc1Nc1ncc2cc(Cl)c(=O)n(C3CCCC3)c2n1 (stereo not drawn) [I-66] ; DC50 observed: 100 to 500 nM
